Data origin: patent US20110091971A1

Let's look at some molecules and their measured Sox 17 Intensity average.
system: H1 or H9 human embryonic stem cells; test: Activin A bioassay: differentiation of human embryonic stem cells to definitive endoderm, cell number and SOX17 intensity by high content analysis (96-well, four days); assay type: cell-based; settings: supernatant concentration 1x, assay dilution 1:20;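 note: total fluorescence of the cell multiplied by cell area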
# output: bare number, no unit

Here are 2 molecules together with their reported answers.
molecule="ACTN28: activin A variant peptide, SEQ ID 29 (protein) GLECDGKVNYCCKKQLFVSFKDIGWNDWIIAPSGYHANHCSGKCPSHIAGTSGSSLSFHSTVINHYRMRGHSPFANMGSCCIPTKLRPMSMLYYDDGQNIIKKDIQNMIVEECGCS" observed_property="Sox 17 Intensity average" quantitative_readout=3.70E+06
molecule="ACTN16: activin A variant peptide, SEQ ID 17 (protein) GLECDGKVNLCCKKQLFVSFKDIGWNDWIIAPSGYHANHCSGLCPSHIAGTSGSSLSFHSTVINHYRMRGHSPFSQMGACCVPTKLRPMSMLYYDDGQNIIKKDIQNMIVEECGCS" observed_property="Sox 17 Intensity average" quantitative_readout=1.36E+07

Below: the item to evaluate.
In: What value of Sox 17 Intensity average has been reported for the following molecule? ACTN17: activin A variant peptide, SEQ ID 18 (protein) GLECDGKVNYCCKKQDFVSFKDIGWNDWIIAPSGYHANKCGGKCPSHIAGTSGSSLSFHSTVINHYRMRGHSPFSDMGACCVPTKLRPMSMLYYDDGQNIIKKDIQNMIVEECGCS
Out: 1.21E+06
